# Species on record: Canis familiaris
# testMethodNotes: In vitro concentration required to inhibit the rate of dog platelet aggregation (in platelet rich plasma) by 50% was determined in presence of 10 uM of ADP and 1 uM of epinephrine
# Format: functional
# assayConditions: Canis lupus familiaris
metric: IC50 (nM)
Express the result in nM but write the number alone.

State, in one line, measured IC50 of `C[C@H](CC(=O)O)NC(=O)CN1CCC[C@@H](CCC2CCNCC2)C1=O`
41

----------
# testMethodNotes: In vitro concentration required to inhibit the rate of chimp platelet aggregation (in platelet rich plasma) by 50% was determined in presence of 20 uM of ADP
# Assay type: functional
# assayConditions: Pan troglodytes
metric: pIC50
Lab note: report pIC50 as minus log10 of the concentration in molar units, number only.

Output measured pIC50 for this item: `C[C@H](CC(=O)O)NC(=O)CN1CCC[C@@H](CCC2CCNCC2)C1=O`
7.38

----------
# Organism: Homo sapiens
# testMethodNotes: Concentration required to inhibit platelet aggregation by 50%
# Assay type: functional
metric: pIC50
// pIC50: -log10(molar conc.)

Report measured pIC50; entry is `C[C@H](CC(=O)O)NC(=O)CN1CCC[C@@H](CCC2CCNCC2)C1=O`
7.49

----------
# Organism: Homo sapiens
# testMethodNotes: In vitro concentration required to inhibit the rate of human platelet aggregation (in platelet rich plasma) by 50% was determined in presence of 10 ug/mL of collagen
# Type: functional
metric: pIC50
Quick note: pIC50 means taking -log10 of the concentration in moles per liter.

Return pIC50 for the following compound: `C[C@H](CC(=O)O)NC(=O)CN1CCC[C@@H](CCC2CCNCC2)C1=O`
7.17
